test-system: Cell division control protein 42 homolog (Homo sapiens) (UniProt P60953)
Sequence (P60953 whole entry, looked up): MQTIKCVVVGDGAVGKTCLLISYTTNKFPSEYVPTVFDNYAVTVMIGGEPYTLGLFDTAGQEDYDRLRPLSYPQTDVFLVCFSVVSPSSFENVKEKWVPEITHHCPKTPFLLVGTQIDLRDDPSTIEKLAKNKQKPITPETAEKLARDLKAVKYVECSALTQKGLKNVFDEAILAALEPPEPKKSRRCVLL
protocol: inhibition of fluorescent GTP binding to wildtype Cdc42 – biochemical, multiplex bead flow cytometry, Bodipy-FL-GTP, dose response (AID 1334)
assay-context: bead-based flow cytometry, Bodipy-FL-GTP binding to GST-Cdc42; at 100 µM (top of the series) unless noted
Results with a measured potency or affinity are listed apart.
readout-type: fluorescence, percent of control (lower = inhibition) (%)
Express your answer in %, writing the number without its unit.

# input Reported fluorescence, percent of control (lower = inhibition) for COc1cc(-c2cc(=O)c3c(O)cc(O)cc3o2)ccc1O : what is it?
# output 36

# input Reported fluorescence, percent of control (lower = inhibition) for COC(=O)c1cccc(Nc2cc(C)nc(-c3ccccc3O)n2)c1 : what is it?
# output 43.1

# input Reported fluorescence, percent of control (lower = inhibition) for O=C(O)c1ccc(CSCc2ccccc2)o1 : what is it?
# output 62.4

# input Reported fluorescence, percent of control (lower = inhibition) for N#Cc1c(=O)c2nc(NCc3ccccc3)ncc2n2ccccc12 : what is it?
# output 41.3

# input Reported fluorescence, percent of control (lower = inhibition) for COc1cccc(CNCc2ccc(C(=O)O)s2)c1 : what is it?
# output 61.9

# input Reported fluorescence, percent of control (lower = inhibition) for COc1ccc(CNc2nc3ccccc3n2Cc2ccc(C)cc2)cc1OC : what is it?
# output 73

# input Reported fluorescence, percent of control (lower = inhibition) for Cc1sc2ncnc(N/N=C/c3ccc(O)cc3)c2c1C : what is it?
# output 27.2

# input Reported fluorescence, percent of control (lower = inhibition) for O=c1n(Cc2ccc(Cl)cc2)c2sc3c(c2c2ncnn12)CCCC3 : what is it?
# output 78.9

# input Reported fluorescence, percent of control (lower = inhibition) for Cc1nnc(OC(C)C)c2nn(-c3ccccc3F)c(C)c12 : what is it?
# output 55.1

# input Reported fluorescence, percent of control (lower = inhibition) for COc1ccc(-c2nnc(CSc3nc4ccccc4c(=O)n3C)o2)cc1OC : what is it?
# output 39.2
